Here, each record is paired with measured pIC50 data.
biological target: GST fusion human ERK2 protein (Homo sapiens, UniProt P28482); construct: purchased Carna Biosciences, Inc; host or cells: E. coli expression system; experiment: ERK2 enzyme assay (1); assay type: biochemical; settings: 2.5 nmol/L ERK2, ATP 43.1 μmol/L; read-out: ERK2 enzyme inhibitory activity (1)
Sequence (P28482 whole entry, the tested form may be a part): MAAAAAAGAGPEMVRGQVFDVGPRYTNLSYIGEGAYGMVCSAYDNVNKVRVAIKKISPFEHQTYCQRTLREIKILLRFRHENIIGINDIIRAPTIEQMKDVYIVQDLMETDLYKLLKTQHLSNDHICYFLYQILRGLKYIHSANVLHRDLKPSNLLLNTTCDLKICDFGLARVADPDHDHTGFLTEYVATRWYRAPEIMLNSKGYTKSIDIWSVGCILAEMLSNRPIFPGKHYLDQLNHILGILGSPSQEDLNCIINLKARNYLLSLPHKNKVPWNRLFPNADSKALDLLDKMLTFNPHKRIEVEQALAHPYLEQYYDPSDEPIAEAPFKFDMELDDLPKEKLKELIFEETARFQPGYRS
pIC50: −log10 of the molar value. Where a name gives a salt, the structure may show the parent alone.

Reference set (3 entries):
[
  {
    "MOLECULE": "c1nc2ccc(Nc3cc(C4CCOC4)cnn3)nc2cc1-c1cnn(CCCN2CCCC2)c1 (centres unmarked)",
    "TARGET UNDER TEST": "GST fusion human ERK2 protein (Homo sapiens, UniProt P28482)",
    "pIC50": "> 6.00"
  },
  {
    "MOLECULE": "c1cn(-c2cc(Nc3cnc4ccc(Nc5nnc(C6CCCC6)s5)nc4c3)ccn2)nn1",
    "TARGET UNDER TEST": "GST fusion human ERK2 protein (Homo sapiens, UniProt P28482)",
    "pIC50": "> 6.00"
  },
  {
    "MOLECULE": "CC(C)c1cnnc(Nc2ccc3ncc(-c4cn[nH]c4)cc3n2)c1",
    "TARGET UNDER TEST": "GST fusion human ERK2 protein (Homo sapiens, UniProt P28482)",
    "pIC50": "> 6.00"
  }
]

Ask: Please report the measured pIC50 for COc1ccc(Nc2ccnc3ccc(Nc4nnc(C(C)C)s4)nc23)cc1
Result: 5.00 to 6.00

Ask: Please report the measured pIC50 for C[Si](C)(C)CCOCn1cc(-c2cnc3ccc(Nc4nncs4)nc3c2)cn1
Result: > 6.00

Ask: Please report the measured pIC50 for c1nc2ccc(Nc3cc(C4CCCC4)cnn3)nc2cc1-c1cnn(CCCN2CCCC2)c1
Result: > 6.00

Ask: Please report the measured pIC50 for c1csc(Nc2ccc3ncc(-c4cnn(CCCN5CCCC5)c4)cc3n2)n1
Result: > 6.00

Ask: Please report the measured pIC50 for COC1CN(c2cnc3ccc(Nc4nnc(C5CCCC5)s4)nc3c2)C1
Result: > 6.00

Ask: Please report the measured pIC50 for CCCCc1nn(C)cc1-c1cnc2ccc(Nc3nnc(C(C)C)s3)nc2c1
Result: > 6.00

Ask: Please report the measured pIC50 for Cc1nnc(Nc2ccc3ncc(Nc4cnn(C)c4)cc3n2)s1
Result: > 6.00

Ask: Please report the measured pIC50 for CNS(=O)(=O)c1nnc(Nc2ccc3ncc(-c4cnn(C)c4)cc3n2)s1 [Example 0189, sodium salt]
Result: > 6.00

Ask: Please report the measured pIC50 for CC(C)c1nnc(Nc2ccc3ncc(-c4cn(C)nc4C(C)C)cc3n2)s1
Result: > 6.00

---

Here, each record is paired with measured pIC50 data.
Target: GST fusion human ERK2 protein (Homo sapiens)
Construct: purchased Carna Biosciences, Inc; host or cells: E. coli expression system
Assay: ERK2 enzyme assay (1)
Format: biochemical
Conditions: ERK2 enzyme assay (1); read-out: ERK2 enzyme inhibitory activity (1)
Method: In an ERK2 enzyme assay, GLUTATHIONE S-TRANSFERASE (GST) FUSION HUMAN ERK2 PROTEIN (manufactured by Carna Biosciences, Inc.), which was produced by using an E. coli expression system, was used. […] The inhibitory activities of the compounds were evaluated using IC50 (50% inhibitory concentration). The IC50 was calculated using XLFIT (trade name, manufactured by ID Business Solutions).
pIC50: −log10 of the molar value.

Reference set (3 entries):
[
  {
    "CHEMICAL SMILES": "c1nc2ccc(Nc3nnc(C4CCCC4)s3)nc2cc1-c1cnn(CCCN2CCCC2)c1",
    "pIC50": "> 6.00"
  },
  {
    "CHEMICAL SMILES": "CC(C)c1nnc(Nc2ccc3nccc(-c4cc[nH]c(=O)c4)c3n2)s1",
    "pIC50": "5.00 to 6.00"
  },
  {
    "CHEMICAL SMILES": "c1nnc(Nc2ccc3ncc(-c4cnn(CCCN5CCCC5)c4)cc3n2)s1",
    "pIC50": "> 6.00"
  }
]

API: the following record is the query input.
Ask: Write down measured pIC50 (GST fusion human ERK2 protein (Homo sapiens)) for this compound. CC(C)c1cnnc(Nc2ccc3ncc(-c4cnn(Cc5ccncc5)c4)cc3n2)c1
Result: > 6.00

---

molecular target: human PI3Kα protein (Homo sapiens); construct: purchased Carna Biosciences, Inc; host or cells: baculovirus expression system; assay: PI3Kα enzyme assay (ADP-Glo); format: biochemical; settings: 4.5 nmol/L PI3Kα, PIP2 50 μmol/L, ATP 100 μmol/L; read-out: PI3Kα enzyme inhibitory activity
Where a name gives a salt, the structure may show the parent alone.
ENDPOINT NAME: IC50

[
  {
    "COMPOUND": "CC(C)c1nnc(Nc2ccc3nccc(Nc4ccccc4)c3n2)s1",
    "ASSAY RESULT": "1000 to 10000 nM"
  },
  {
    "COMPOUND": "c1nc2ccc(Nc3cc(C4CCCC4)cnn3)nc2cc1-c1cnn(CCCN2CCCC2)c1",
    "ASSAY RESULT": "< 1000 nM"
  },
  {
    "COMPOUND": "Cn1cc(-c2cnc3ccc(Nc4ncc[nH]4)nc3c2)cn1",
    "ASSAY RESULT": "< 1000 nM"
  },
  {
    "COMPOUND": "Cn1cc(-c2cnc3ccc(Nc4ccc(Cl)nn4)nc3c2)cn1",
    "ASSAY RESULT": "1000 to 10000 nM"
  },
  {
    "COMPOUND": "CC(C)c1cnc(Nc2ccc3ncc(-c4cnn(C)c4)cc3n2)s1",
    "ASSAY RESULT": "< 1000 nM"
  },
  {
    "COMPOUND": "Cc1cnnc(Nc2ccc3ncc(Nc4cncc(OCCN5CCOCC5)c4)cc3n2)c1",
    "ASSAY RESULT": "< 1000 nM"
  },
  {
    "COMPOUND": "COc1ncccc1Nc1cnc2ccc(Nc3nnc(C4CCCC4)s3)nc2c1",
    "ASSAY RESULT": "1000 to 10000 nM"
  },
  {
    "COMPOUND": "CC(C)Cc1cnc(Nc2ccc3ncc(-c4cnn(C)c4)cc3n2)s1",
    "ASSAY RESULT": "1000 to 10000 nM"
  }
]

Ask: Please report the measured IC50 for Cn1cc(-c2cnc3ccc(Nc4cccnn4)nc3c2)cn1
Result: 1000 to 10000 nM

Ask: Please report the measured IC50 for Cn1cc(-c2cnc3ccc(Nc4nnc(S(N)(=O)=O)s4)nc3c2)cn1 [Example 0191, sodium salt]
Result: < 1000 nM

Ask: Please report the measured IC50 for C[Si](C)(C)CCOCn1cc(-c2cnc3ccc(Nc4nncs4)nc3c2)cn1
Result: 1000 to 10000 nM

Ask: Please report the measured IC50 for CC(C)c1cnnc(Nc2ccc3ncc(-c4cnn(CCCN5CCN(C)CC5)c4)cc3n2)c1
Result: < 1000 nM

Ask: Please report the measured IC50 for O=C1C=C(c2cnc3ccc(Nc4nnc(C5CCCC5)s4)nc3c2)CO1 [Example 0045, hydrochloride]
Result: 10000 to 50000 nM

Ask: Please report the measured IC50 for CC(C)c1nnc(Nc2ccc3ncc(-c4cn(C)nc4-c4ccncc4)cc3n2)s1
Result: < 1000 nM

Ask: Please report the measured IC50 for c1nnc(Nc2ccc3ncc(N4CCOCC4)cc3n2)s1
Result: 1000 to 10000 nM

---

target: GST fusion human ERK2 protein (Homo sapiens, UniProt P28482); construct: purchased Carna Biosciences, Inc; host or cells: E. coli expression system; assay: ERK2 enzyme assay (2); type: biochemical; conditions: read-out: ERK2 enzyme inhibitory activity (2)
Here, each record is paired with measured IC50 data.

[
  {
    "MOLECULE": "CC(C)c1cnnc(Nc2ccc3ncc(-c4cnn(C)c4)c(O)c3n2)c1",
    "ENDPOINT NAME": "IC50",
    "ASSAY RESULT": "10000 to 50000 nM"
  }
]

Ask: Please report the measured IC50 for Cc1nn(C)cc1-c1cnc2ccc(Nc3cc(C4CCCCC4)cnn3)nc2c1
Result: < 1000 nM

Ask: Please report the measured IC50 for CC(C)c1cnnc(Nc2ccc3ncc(NC4CNC4)cc3n2)c1
Result: 1000 to 10000 nM

Ask: Please report the measured IC50 for CC(C)c1cnnc(Nc2ccc3ncc(-c4cnn(C)c4)c(Cl)c3n2)c1
Result: < 1000 nM

---

target: human PI3Kα protein (Homo sapiens, UniProt P42336); construct: purchased Carna Biosciences, Inc; host or cells: baculovirus expression system; assay: PI3Kα enzyme assay (ADP-Glo); format: biochemical; details: read-out: PI3Kα enzyme inhibitory activity
Sequence (P42336 whole entry): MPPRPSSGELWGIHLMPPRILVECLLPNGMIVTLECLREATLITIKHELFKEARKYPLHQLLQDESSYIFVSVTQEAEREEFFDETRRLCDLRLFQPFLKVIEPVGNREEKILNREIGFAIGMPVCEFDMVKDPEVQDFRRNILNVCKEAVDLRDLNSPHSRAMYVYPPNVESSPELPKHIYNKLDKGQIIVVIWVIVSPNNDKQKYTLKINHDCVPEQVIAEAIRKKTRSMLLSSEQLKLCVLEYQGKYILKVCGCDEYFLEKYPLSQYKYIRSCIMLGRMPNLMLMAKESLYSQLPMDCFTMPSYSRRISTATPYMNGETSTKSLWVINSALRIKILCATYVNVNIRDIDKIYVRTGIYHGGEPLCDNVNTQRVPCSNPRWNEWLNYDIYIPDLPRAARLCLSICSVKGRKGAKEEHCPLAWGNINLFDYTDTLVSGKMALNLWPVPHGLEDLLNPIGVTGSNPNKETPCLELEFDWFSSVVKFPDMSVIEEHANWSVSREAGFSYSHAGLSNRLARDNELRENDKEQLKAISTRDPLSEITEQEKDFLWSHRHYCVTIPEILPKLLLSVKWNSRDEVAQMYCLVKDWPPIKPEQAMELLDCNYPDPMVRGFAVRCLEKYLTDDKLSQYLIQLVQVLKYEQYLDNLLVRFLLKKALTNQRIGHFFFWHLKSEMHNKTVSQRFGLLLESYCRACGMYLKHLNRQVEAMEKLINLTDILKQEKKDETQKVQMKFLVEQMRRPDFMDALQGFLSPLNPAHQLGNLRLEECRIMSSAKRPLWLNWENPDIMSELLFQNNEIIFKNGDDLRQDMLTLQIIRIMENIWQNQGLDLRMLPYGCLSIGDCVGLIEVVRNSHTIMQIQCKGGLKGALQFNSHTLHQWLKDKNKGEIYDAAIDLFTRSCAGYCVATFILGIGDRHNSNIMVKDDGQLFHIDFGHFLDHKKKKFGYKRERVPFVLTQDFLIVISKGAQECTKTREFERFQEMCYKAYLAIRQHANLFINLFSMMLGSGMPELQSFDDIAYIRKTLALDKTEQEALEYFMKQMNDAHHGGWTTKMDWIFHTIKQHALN
Sequence (P27986 whole entry partner): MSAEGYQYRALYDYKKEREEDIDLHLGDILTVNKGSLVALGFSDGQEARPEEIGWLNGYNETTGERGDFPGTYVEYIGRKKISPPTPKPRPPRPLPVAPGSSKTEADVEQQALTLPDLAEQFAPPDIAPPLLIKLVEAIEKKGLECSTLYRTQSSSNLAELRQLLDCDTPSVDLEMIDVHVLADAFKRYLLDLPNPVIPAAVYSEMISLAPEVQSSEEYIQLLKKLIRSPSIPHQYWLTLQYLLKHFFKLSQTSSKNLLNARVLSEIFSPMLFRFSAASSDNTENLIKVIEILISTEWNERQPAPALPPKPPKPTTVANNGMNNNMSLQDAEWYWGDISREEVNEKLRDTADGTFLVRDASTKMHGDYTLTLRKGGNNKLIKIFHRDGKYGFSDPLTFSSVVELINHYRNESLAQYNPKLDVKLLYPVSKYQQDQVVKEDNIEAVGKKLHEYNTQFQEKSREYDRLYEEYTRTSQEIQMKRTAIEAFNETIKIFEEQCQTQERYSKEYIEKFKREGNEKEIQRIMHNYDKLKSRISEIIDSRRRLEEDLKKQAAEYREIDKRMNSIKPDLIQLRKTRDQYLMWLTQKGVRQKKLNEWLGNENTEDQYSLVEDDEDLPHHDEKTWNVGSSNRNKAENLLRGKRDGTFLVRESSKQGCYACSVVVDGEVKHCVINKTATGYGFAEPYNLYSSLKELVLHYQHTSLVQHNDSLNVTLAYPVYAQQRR
ENDPOINT NAME: IC50

Reference set (3 entries):
[
  {
    "COMPOUND": "Cc1ccc(-c2nn(C)cc2-c2cnc3ccc(Nc4cc(C(C)C)cnn4)nc3c2)cc1 [Example 0767]",
    "IC50": "< 1000 nM"
  },
  {
    "COMPOUND": "OCCCn1cc(-c2cnc3ccc(Nc4nnc(C5CCCC5)s4)nc3c2)cn1 [Example 0316]",
    "IC50": "< 1000 nM"
  },
  {
    "COMPOUND": "CC(C)c1cnnc(Nc2ccc3ncc(NC4CCOC4)cc3n2)c1 (centres unmarked) [Example 0890]",
    "IC50": "< 1000 nM"
  }
]

Ask: Please report the measured IC50 for CC(=O)Nc1cc(-c2cnc3ccc(Nc4cc(C(C)C)cnn4)nc3c2)ccn1 [Example 0421]
Result: < 1000 nM

Ask: Please report the measured IC50 for CC(C)c1cnnc(Nc2ccc3ncc(-c4cnn(CC(F)CN5CCCC5)c4)cc3n2)c1 (centres unmarked) [Example 0727]
Result: < 1000 nM

Ask: Please report the measured IC50 for c1n[nH]cc1Nc1cnc2ccc(Nc3nnc(C4CCCCC4)s3)nc2c1 [Example 0223]
Result: 1000 to 10000 nM

Ask: Please report the measured IC50 for CC(C)c1cnnc(Nc2ccc3ncc(-c4cnn(CCCN5CC6CCC(C5)O6)c4)cc3n2)c1 [Example 0653]
Result: < 1000 nM

Ask: Please report the measured IC50 for OCc1nnc(Nc2ccc3ncc(-c4cnn(CCCN5CCCC5)c4)cc3n2)s1 [Example 0239]
Result: < 1000 nM
